Recorded values, source PubChem BioAssay (NCI).

test system: SK-MEL-28 melanoma; assay: NCI-60 one-dose screen, 48 h (100 = growth as untreated, 0 = no growth, -100 = all killed); details: 10 µM unless noted
The panel holds about 83,000 compounds, 20% with a hit somewhere; the sample as a whole holds those more often.
Value Type: growth (%)

1) Cc1nc2ccc(Cl)cn2c1-c1nnc(SCc2ccc([N+](=O)[O-])cc2)o1 40.2
2) Brc1ccc(Nc2csc(-c3ccccn3)n2)cc1 109
3) CC1(C)CC[C@]2(C(=O)O)CC[C@]3(C)C(=CC[C@@H]4[C@@]5(C)Cc6c([nH]c7ccccc67)C(C)(C)[C@@H]5CC[C@]43C)[C@@H]2C1 83.2
4) CCOC(=O)c1cc(C#N)n2ccc3ccccc3c12 106
5) Cn1ccnc1C(=O)/C=C/c1ccc(CC(=O)NC2CCCCC2)cc1 92.3
